# ASSAY_INFO: Stability in rat liver homogenate
# Type: in vitro ADME
# APPLIED_CONDITIONS: 37° C., LC-MS
EXPERIMENTAL_READOUT: half-life at 100 µM

Ask: # get_value(readout='half-life at 100 µM', item= CC(C)C[C@H](NC(=O)[C@@H]1CSSC[C@H](NC(=O)[C@@H]2CCCN2C(=O)[C@@H](N)CC(C)C)C(=O)N[C@@H](CC(=O)O)C(=O)N[C@@H](Cc2ccc(O)cc2)C(=O)N[C@@H](Cc2ccc(O)cc2)C(=O)NCC(=O)N[C@@H](C(C)O)C(=O)N1)C(=O)N[C@@H](CC(=O)O)C(N)=O (stereo partly shown) [Structure 1] )
Reply: < 2 min
